Test system: Candida albicans
Assay: Antifungal activity against Candida albicans ATCC 10231 assessed as growth inhibition by M7-A6 method
Assay type: functional
MIC for assorted compounds
QUANTITY: MIC (µM)

{"columns": ["SMILES_RECORD", "COMPARATIVE_SIGN", "VALUE_REPORTED"],
 "data": [
  ["Cl.N=C(N)c1ccc(SCCOCCSc2ccc(C(=N)N)cc2)cc1", "=", 1070],
  ["COc1cc(C(=N)N)cc(OC)c1OCCCCCOc1c(OC)cc(C(=N)N)cc1OC", "=", 890],
  ["COc1cc(C(=N)N)ccc1OCCN(CCOc1ccc(C(=N)N)cc1OC)S(=O)(=O)c1ccc(NC(C)=O)cc1", "=", 180],
  ["COc1cc(C(=N)N)ccc1OCCN(C)CCOc1ccc(C(=N)N)cc1OC", ">", 16300],
  ["COc1cc(C(=N)N)cc(OC)c1OCCN(CCOc1c(OC)cc(C(=N)N)cc1OC)S(=O)(=O)c1ccc(N)cc1", ">", 12800],
  ["Cl.c1cc(C2=NCCN2)ccc1OCCSCCOc1ccc(C2=NCCN2)cc1", "=", 240],
  ["CN(CCOc1ccc(C(=N)N)cc1)CCOc1ccc(C(=N)N)cc1", ">", 21100],
  ["COc1cc(C(=N)N)cc(OC)c1OCCN(C)CCOc1c(OC)cc(C(=N)N)cc1OC", ">", 15200],
  ["COc1cc(C(=N)N)cc(OC)c1OCCN(CCOc1c(OC)cc(C(=N)N)cc1OC)S(=O)(=O)c1ccccc1", "=", 7040]
]}

----------
System: Candida albicans
Experiment: Antifungal activity against Candida albicans ATCC 10231 assessed as growth inhibition by M7-A6 method
Format: functional

{"columns": ["SMILES_RECORD", "COMPARATIVE_SIGN", "MIC / µM"],
 "data": [
  ["COc1cc(C(=N)N)cc(OC)c1OCCOCCOc1c(OC)cc(C(=N)N)cc1OC", ">", 17000],
  ["N=C(N)c1ccc(OCCN(CCOc2ccc(C(=N)N)cc2)S(=O)(=O)c2ccccc2)cc1", "=", 210],
  ["N=C(N)c1ccc(OCCOCCOc2ccc(C(=N)N)cc2)cc1", ">", 22200],
  ["COc1cc(C(=N)N)ccc1OCCOCCOc1ccc(C(=N)N)cc1OC", "=", 10500],
  ["CN(CCCCCN(C)c1ccc(C(=N)N)cc1)c1ccc(C(=N)N)cc1", "=", 120],
  ["N=C(N)c1ccc(OCCSCCOc2ccc(C(=N)N)cc2)cc1", "=", 140]
]}

----------
Test: Cytotoxicity against human A549 cells assessed as cell viability at 10 ug/ml after 72 hrs by MTT assay
Type: cell-based
Conditions: read-out: Activity
Measured viability at 72 h, 10 ug/ml values are reported for all entries that follow.
QUANTITY: viability at 72 h, 10 ug/ml

{"columns": ["SMILES_RECORD", "QUANTITY", "VALUE_REPORTED"],
 "data": [
  ["Cl.N=C(NC1CCCCC1)c1ccc(OCCSCCOc2ccc(C(=N)NC3CCCCC3)cc2)cc1", "viability at 72 h, 10 ug/ml", "69.6%"],
  ["Cl.c1cc(C2=NCCN2)ccc1OCCSCCOc1ccc(C2=NCCN2)cc1", "viability at 72 h, 10 ug/ml", "59.1%"],
  ["Cl.N=C(N)c1ccc(SCCOCCSc2ccc(C(=N)N)cc2)cc1", "viability at 72 h, 10 ug/ml", "56.4%"],
  ["CCCCNC(=N)c1ccc(OCCSCCOc2ccc(C(=N)NCCCC)cc2)cc1.Cl", "viability at 72 h, 10 ug/ml", "67.6%"]
]}

----------
Experiment: Cytotoxicity against human A549 cells assessed as cell viability at 50 ug/ml after 48 hrs by MTT assay
Assay type: cell-based
Details: read-out: Activity

{"columns": ["SMILES_RECORD", "viability at 48 h, 50 ug/ml (%)"],
 "data": [
  ["Cl.N=C(N)c1ccc(SCCOCCSc2ccc(C(=N)N)cc2)cc1", 48.1],
  ["CCCCNC(=N)c1ccc(OCCSCCOc2ccc(C(=N)NCCCC)cc2)cc1.Cl", 68.8],
  ["Cl.c1cc(C2=NCCN2)ccc1OCCSCCOc1ccc(C2=NCCN2)cc1", 63.6],
  ["Cl.N=C(NC1CCCCC1)c1ccc(OCCSCCOc2ccc(C(=N)NC3CCCCC3)cc2)cc1", 74.9]
]}

----------
Test: Cytotoxicity against human A549 cells assessed as cell viability at 200 ug/ml after 48 hrs by MTT assay
Assay type: cell-based
Conditions: read-out: Activity
QUANTITY: viability at 48 h, 200 ug/ml (%)

{"columns": ["SMILES_RECORD", "QUANTITY", "VALUE_REPORTED"],
 "data": [
  ["CCCCNC(=N)c1ccc(OCCSCCOc2ccc(C(=N)NCCCC)cc2)cc1.Cl", "viability at 48 h, 200 ug/ml", 59.1],
  ["Cl.N=C(N)c1ccc(SCCOCCSc2ccc(C(=N)N)cc2)cc1", "viability at 48 h, 200 ug/ml", 9.5],
  ["Cl.c1cc(C2=NCCN2)ccc1OCCSCCOc1ccc(C2=NCCN2)cc1", "viability at 48 h, 200 ug/ml", 16.5],
  ["Cl.N=C(NC1CCCCC1)c1ccc(OCCSCCOc2ccc(C(=N)NC3CCCCC3)cc2)cc1", "viability at 48 h, 200 ug/ml", 61.4]
]}

----------
Assay: Cytotoxicity against human HeLa cells assessed as cell viability at 50 ug/ml after 48 hrs by MTT assay
Type: cell-based
Conditions: read-out: Activity

{"columns": ["SMILES_RECORD", "viability at 48 h, 50 ug/ml / %"],
 "data": [
  ["Cl.N=C(N)c1ccc(SCCOCCSc2ccc(C(=N)N)cc2)cc1", 10.4],
  ["Cl.c1cc(C2=NCCN2)ccc1OCCSCCOc1ccc(C2=NCCN2)cc1", 68.5],
  ["Cl.N=C(NC1CCCCC1)c1ccc(OCCSCCOc2ccc(C(=N)NC3CCCCC3)cc2)cc1", 95.8],
  ["CCCCNC(=N)c1ccc(OCCSCCOc2ccc(C(=N)NCCCC)cc2)cc1.Cl", 83.4]
]}

----------
System: Saccharomyces cerevisiae
Assay: Antifungal activity against Saccharomyces cerevisiae ATCC 9763 assessed as growth inhibition by M7-A6 method
Format: functional
Could you mark each record YES if its MIC falls strictly under 500 µM, and NO if it equals or exceeds it?

{"columns": ["SMILES_RECORD", "CAT"],
 "data": [
  ["CCCCNC(=N)c1ccc(OCCSCCOc2ccc(C(=N)NCCCC)cc2)cc1.Cl", "YES"],
  ["N=C(N)c1ccc(OCCN(CCOc2ccc(C(=N)N)cc2)S(=O)(=O)c2ccccc2)cc1", "YES"],
  ["N=C(N)c1ccc(OCCSCCOc2ccc(C(=N)N)cc2)cc1", "YES"],
  ["COc1cc(C(=N)N)ccc1OCCOCCOc1ccc(C(=N)N)cc1OC", "NO"],
  ["Cl.N=C(N)c1ccc(SCCOCCSc2ccc(C(=N)N)cc2)cc1", "NO"],
  ["N=C(N)c1ccc(NCCOCCNc2ccc(C(=N)N)cc2)cc1", "NO"],
  ["N=C(N)c1ccc(OCCOCCOc2ccc(C(=N)N)cc2)cc1", "NO"]
]}

----------
Test: Cytotoxicity against human A549 cells assessed as cell viability at 200 ug/ml after 72 hrs by MTT assay
Format: cell-based
Details: read-out: Activity
viability at 72 h, 200 ug/ml values for the molecules below.
QUANTITY: viability at 72 h, 200 ug/ml (%)

{"columns": ["SMILES_RECORD", "RESULT_UNIT", "VALUE_REPORTED"],
 "data": [
  ["CCCCNC(=N)c1ccc(OCCSCCOc2ccc(C(=N)NCCCC)cc2)cc1.Cl", "%", 42.2],
  ["Cl.N=C(NC1CCCCC1)c1ccc(OCCSCCOc2ccc(C(=N)NC3CCCCC3)cc2)cc1", "%", 54.3],
  ["Cl.N=C(N)c1ccc(SCCOCCSc2ccc(C(=N)N)cc2)cc1", "%", 7.9],
  ["Cl.c1cc(C2=NCCN2)ccc1OCCSCCOc1ccc(C2=NCCN2)cc1", "%", 10.2]
]}

----------
Some compounds, each annotated with its measured viability at 48 h, 200 ug/ml.
Experiment: Cytotoxicity against human HeLa cells assessed as cell viability at 200 ug/ml after 48 hrs by MTT assay
Type: cell-based
Conditions: read-out: Activity

{"columns": ["SMILES_RECORD", "RESULT_UNIT", "viability at 48 h, 200 ug/ml"],
 "data": [
  ["Cl.c1cc(C2=NCCN2)ccc1OCCSCCOc1ccc(C2=NCCN2)cc1", "%", 16.5],
  ["CCCCNC(=N)c1ccc(OCCSCCOc2ccc(C(=N)NCCCC)cc2)cc1.Cl", "%", 25.8],
  ["Cl.N=C(N)c1ccc(SCCOCCSc2ccc(C(=N)N)cc2)cc1", "%", 10.1],
  ["Cl.N=C(NC1CCCCC1)c1ccc(OCCSCCOc2ccc(C(=N)NC3CCCCC3)cc2)cc1", "%", 15.3]
]}
